# System: Plasmodium falciparum
# experimentSummary: Antiplasmodial activity against Plasmodium falciparum 3D7 infected in erythrocytes assessed as parasitemia level at 500 nM after 48 hrs by YOYO-1 staining-based flow cytometry relative to control
# Format: functional
Recorded Activity, one value per entry.
parameterMeasured: Activity (%)

| smilesNotation | outputUnit | numericResult |
| --- | --- | --- |
| CCCC(=O)NCCc1c[nH]c2ccc(OC)cc12 | % | 8 |
| CC(=O)NCCc1c[nH]c2ccccc12 | % | 12.9 |
| COc1ccc2[nH]cc(CCNC(=O)c3ccccc3)c2c1 | % | 10.8 |
| CCCCCC(=O)NCCc1c[nH]c2ccc(OC)cc12 | % | 7.8 |
| CCCCCC(=O)NCCc1c[nH]c2ccccc12 | % | 6 |
| CCCC(=O)NCCc1c[nH]c2ccccc12 | % | 9.2 |
| COC(=O)NCCc1c[nH]c2ccc(OC)cc12 | % | 10 |
| COC(=O)NCCc1c[nH]c2ccccc12 | % | 11.7 |
| COc1ccc2[nH]cc(CCN)c2c1 | % | 19.7 |

Every entry's value here was drawn from ChEMBL document CHEMBL3232831.
